Provenance of the data: paper PMC4154873

Please go through the items and note down their pKd.
B1: unnamed (parent)
chain 1: ATCYCRTGRCATRESLSGVCEISGRLYRLCCR
chain 2: MKRARPSEDTFNPVYPYDTETGPPTVPFLTPPFVSPNGFQESPPGVLSLRLSEPLVTSNGMLALKMGNGLSLDEAGNLTSQNVTTVSPPLKKTKSNINLEISAPLTVTSEALTVAAAAPLMVAGNTLTMQSQAPLTVHDSKLSIATQGPLTVSEGKLALQTSGPLTTTDSSTLTITASPPLTTATGSLGIDLKEPIYTQNGKLGLKYGAPLHVTDDLNTLTVATGPGVTINNTSLQTKVTGALGFDSQGNMQLNVAGGLRIDSQNRRLILDVSYPFDAQNQLNLRLGQGPLFINSAHNLDINYNKGLYLFTASNNSKKLEVNLSTAKGLMFDATAIAINAGDGLEFGSPNAPNTNPLKTKIGHGLEFDSNKAMVPKLGTGLSFDSTGAITVGNKNNDKLTLWTTPAPSPNCRLNAEKDAKLTLVLTKCGSQILATVSVLAVKGSLAPISGTVQSAHLIIRFDENGVLLNNSFLDPEYWNFRNGDLTEGTAYTNAVGFMPNLSAYPKSHGKTAKSNIVSQVYLNGDKTKPVTLTITLNGTQETGDTTPSAYSMSFSWDWSGHNYINEIFATSSYTFSYIAQE
chain 3: MRRAAMYEEGPPPSYESVVSAAPVAAALGSPFDAPLDPPFVPPRYLRPTGGRNSIRYSELAPLFDTTRVYLVDNKSTDVASLNYQNDHSNFLTTVIQNNDYSPGEASTQTINLDDRSHWGGDLKTILHTNMPNVNEFMFTNKFKARVMVSRLPTKDNQVELKYEWVEFTLPEGNYSETMTIDLMNNAIVEHYLKVGRQNGVLESDIGVKFDTRNFRLGFDPVTGLVMPGVYTNEAFHPDIILLPGCGVDFTHSRLSNLLGIRKRQPFQEGFRITYDDLEGGNIPALLDVDAYQASLKDDTEQGGGGAGGSNSSGSGAEENSNAAAAAMQPVEDMNDHAIRGDTFATRAEEKRAEAEAAAEAAAPAAQPEVEKPQKKPVIKPLTEDSKKRSYNLISNDSTFTQYRSWYLAYNYGDPQTGIRSWTLLCTPDVTCGSEQVYWSLPDMMQDPVTFRSTRQISNFPVVGAELLPVHSKSFYNDQAVYSQLIRQFTSLTHVFNRFPENQILARPPAPTITTVSENVPALTDHGTLPLRNSIGGVQRVTITDARRRTCPYVYKALGIVSPRVLSSRTF

# Variants of: B1
# experiment: SPR
# statedConditions: with partner chain of the complex shown; steady-state binding curves at 80 sec of association time; 3-fold dilution series from 3 µM to 111 nM; immobilized rPenton (2115 RU); read off a plot
Please report pKd as the negative decimal logarithm of the molar concentration, giving only the number.

Name the recorded pKd of the variant listed here: chain 1 ATCYCRTGRCATRESLSGVCEASGRLYRLCCR [chain 1 I22A] 5.82

Answer with reported pKd of chain 1 ATCYCRTGRCATRESLSGVCEISGRAYRLCCR [chain 1 L26A] 5.89

Given the variant chain 1 ATCYCRAGRCATRESLSGVCEISGRLYRLCCR [chain 1 T7A] , write its reported pKd. 5.89

Kindly indicate its recorded pKd. Item: chain 1 ATCYCRTGRCATRESLSGVCEISGRLYALCCR [chain 1 R28A] 5.89

Using known records, supply pKd for chain 1 ATCYCRTGRCAARESLSGVCEISGRLYRLCCR [chain 1 T12A] 5.82

Could you please provide reported pKd for chain 1 ATCYCRTGRCATRESLSGVCAISGRLYRLCCR [chain 1 E21A] ? Thanks! 5.80
